Ref: ChEMBL document CHEMBL5346863

Tested on: Mycobacterium tuberculosis variant bovis
run description: Antibacterial activity against Mycobacterium bovis BCG ATCC 35734 assessed as bacterial growth inhibition incubated for 2 to 3 weeks by resazurin dye based assay
Assay type: functional
measurement context: time 2-3 weeks
quantity measured: log10(MIC) (log10 of the value in µM)

1. Fc1ccc(COc2cccc(CNCc3ccccc3)c2)cc1 ... 0.89
2. Cc1ccc(COc2ccc(CNCc3ccccc3)cc2)cc1 ... 0.59
3. Brc1cccc(COc2ccc(CNCc3ccccc3)cc2)c1 ... 0.89
4. c1ccc(CNCc2ccccc2OCc2ccccc2)cc1 ... 1.80
5. Clc1ccc(COc2cccc(CNCc3ccncc3)c2)cc1 ... 1.80
6. Clc1ccc(COc2ccc(CNCc3cccnc3)cc2)cc1 ... 1.80
7. Clc1cccc(COc2ccccc2CNCc2cccnc2)c1 ... 1.80
8. Brc1ccccc1COc1ccc(CNCc2ccccc2)cc1 ... 0.89
9. Brc1ccc(COc2ccccc2CNCc2ccncc2)cc1 ... 1.80
10. Brc1ccc(COc2ccccc2CNCc2ccccc2)cc1 ... 1.80
11. CC(C)c1ccc(COc2ccc(CNCc3ccccc3)cc2)cc1 ... 0.00
12. Fc1ccc(COc2ccc(CNCc3cccnc3)cc2)cc1 ... 1.80
13. Clc1cccc(COc2ccccc2CNCc2ccccc2)c1 ... 1.19
14. Clc1ccc(COc2ccccc2CNCc2ccccc2)cc1 ... 1.80
15. CC(C)(C)c1ccc(COc2ccc(CNCc3ccccc3)cc2)cc1 ... 0.30
16. c1ccc(CNCc2ccc(OCc3ccc(-c4ccccc4)cc3)cc2)cc1 ... 0.59
17. c1ccc(CNCc2ccc(OCc3ccccc3)cc2)cc1 ... 1.50
18. Clc1ccc(COc2cccc(CNCc3ccccc3)c2)cc1 ... 0.89
